Hey, just so you know, these numbers are from patent US12240857B2.

Tested on: Vero cells
RUN PARAMETERS: African green monkey
MEASURE: % cell viability at 5 μM (%)
Expressed in %, but write only the number.

// solved cases for % cell viability at 5 μM follow
O=C(N1CCN(c2ccccc2)CC1)C12CC3CC(C1)CC(c1ccccc1)(C3)C2 = 83
Cc1ccc(C23CC4CC(CC(C(=O)NC5CN6CCC5CC6)(C4)C2)C3)cc1 (stereo not drawn) = 92
Cc1ccc(C23CC4CC(CC(C(=O)N5CCN(C)CC5)(C4)C2)C3)cc1 = 95
CC12CC3CC(C)(C1)CC(C(=O)NCCN1CCCCC1)(C3)C2 = 90
O=C(NC1CCN(Cc2ccccc2)CC1)C12CC3CC(C1)CC(c1ccccc1)(C3)C2 = 62

Turning now to a further record.
Recorded result, O=C(N[C@@H]1CCNC1)C12CC3CC(C1)CC(c1ccccc1)(C3)C2 , % cell viability at 5 μM: 97
